Answer each item with its documented Growth Rate.
- Tested on: U2OS
- Protocol summary: Incucyte cell viability with U2OS; further: unitless GR value; below 1 slowed growth and below 0 cell loss
- Format: toxicity, cell-based
- Measurement setup: human, 12 h, 10 µM, compound concentration 10 uM, replicate number 2, timepoint 12 hours
One number for each entry.

Dear colleague, could you please provide Growth Rate for the molecules listed below?
1. CN(C)C(=O)N1CC[C@H](NC2=Nc3cc(F)ccc3N(CC(F)F)c3ccc(Cl)cc32)C1
2. CN(C(=O)c1ccccc1)c1cc(N(C)c2ccc3c(c2)CCc2ccc(C(=O)NCCN4CCOCC4)cc2C3=O)ccc1F [FM-743]
3. CCc1cc2cc(NS(=O)(=O)c3ccc(C#N)cc3)ccc2n(CC)c1=O
4. CC(C)Oc1ccc(Cc2ccc(NC3=NCCN3)cc2)cc1
5. N[C@@]1(C(=O)O)CC[C@H]2[C@H](C(=O)O)[C@H]21
6. CC[C@H](Nc1ncnc2[nH]cnc12)c1nc2cccc(F)c2c(=O)n1-c1ccccc1 [IDELALISIB]
7. Cc1nc(C#Cc2cccnc2)cs1.Cl
8. CCOc1nc2cccc(C(=O)O)c2n1Cc1ccc(-c2ccccc2-c2nnn[nH]2)cc1

[0.92, 0.72, 0.85, 0.75, 0.94, 0.55, 0.84, 0.99]

Dear colleague, could you please provide Growth Rate for the molecules listed below?
1. C[C@@](Cc1c[nH]c2ccccc12)(NC(=O)Nc1ccc([N+](=O)[O-])cc1)C(=O)NCC1(c2ccccn2)CCCCC1
2. C[C@H](NC(=O)CNC(=O)c1cccc(Cl)c1)c1ccccc1
3. S=C(NCCCc1c[nH]cn1)NCCCN(Cc1ccc(Cl)c(Cl)c1)c1ccc(Br)cn1
4. CC(C)[C@H](C(=O)Nc1ccc(C(=O)NO)cc1)c1ccccc1 [AR-42]
5. O=C(CCCc1ccccc1)Nc1nc2ccccc2c(=O)s1
6. CN1CCN2c3ccccc3Cc3ccccc3C2C1.Cl (stereo not given) [MIANSERIN HYDROCHLORIDE]
7. COCCN1CCC(c2cc(CN(C)C(=O)c3cccc(Oc4ccccc4)c3)ccn2)CC1
8. C[C@H]1CN(C[C@H](Cc2ccccc2)C(=O)NCC(=O)O)CC[C@@]1(C)c1cccc(O)c1 [ALVIMOPAN]

[-0.2, 0.94, 0.84, 0.71, 0.83, 0.97, 0.87, 0.99]

----------
- Tested on: HEK-293T
- Protocol summary: Incucyte cell viability with HEK293T; further: unitless GR value; below 1 slowed growth and below 0 cell loss
- Assay type: toxicity, cell-based
- Measurement setup: human, 12 h, 10 µM, compound concentration 10 uM, replicate number 1, timepoint 12 hours
Answer each item with its documented Growth Rate.

Worked examples, 8 compounds total:
INSERT INTO measurements (compound, result) VALUES
  ('CO/C1=C/C(C)=C\[C@@H](C)[C@@H](O)[C@@H](C)C/C(C)=C\C=C/[C@H](OC)C([C@@H](C)[C@@H](O)[C@H](C)[C@@]2(O)C[C@@H](O)[C@H](C)[C@@H](C(C)C)O2)OC1=O (stereo partly drawn)', -0.61),
  ('O=C(O)CCC/C=C\CC1C(O)CC(O)C1/C=C/C(O)COc1cccc(Cl)c1 (stereo not drawn)', 0.74),
  ('C[C@H](N)COC(=O)[C@@H](CCCCN)NC(=O)Cc1c(-c2ccc3ccccc3c2)[nH]c2c1ccc1ccccc12', 0.97),
  ('NC(=O)c1ccc(CNC(=O)NC[C@H]2CN(Cc3ccc(Cl)c(Cl)c3)CCO2)cc1', 0.86),
  ('C[C@@H]1CN(Cc2ccc(F)cc2)CCN1C(=O)COc1ccc(Cl)cc1NC(N)=O [BX 471 FREE BASE]', -0.03),
  ('COc1ccc2cc(S(=O)(=O)N[C@H](CC(=O)N[C@H](Cc3ccc(CN4[C@H](C)CCC[C@@H]4C)cc3)C(=O)N(C)C(C)C)c3ccc4c(c3)OCO4)ccc2c1.Cl', 0.01),
  ('CCC(C)n1ncn(-c2ccc(N3CCN(c4ccc(OC[C@@H]5CO[C@@](Cn6cncn6)(c6ccc(Cl)cc6Cl)O5)cc4)CC3)cc2)c1=O.CCC(C)n1ncn(-c2ccc(N3CCN(c4ccc(OC[C@H]5CO[C@](Cn6cncn6)(c6ccc(Cl)cc6Cl)O5)cc4)CC3)cc2)c1=O (stereo partly drawn)', -0.28),
  ('CCCN[C@H]1CCc2nc(N)sc2C1.Cl.Cl', 0.99);

Dear colleague, could you please provide Growth Rate for the compounds listed below?
1. NCCc1c[nH]c2ccc(C(N)=O)cc12.O=C(O)/C=C\C(=O)O
2. O=C(NCCO)c1cccc(-c2cc(Nc3ccc(OC(F)(F)F)cc3)ncn2)c1
3. O=C1NC(Nc2ccccc2)=N/C1=C\c1ccc2c(c1)OCO2
4. Cc1noc(-c2ccc(-c3ccc(CC(=O)O)cc3)cc2)c1NC(=O)O[C@H](C)c1ccccc1Cl

1: 0.96; 2: -0.19; 3: 0.75; 4: 0.85

Dear colleague, could you please provide Growth Rate for the compounds listed below?
1. COc1cc(NC(=O)CCN2CCC(OC(=O)Nc3ccccc3-c3ccccc3)CC2)c(Cl)cc1CNC[C@H](O)c1ccc(O)c2[nH]c(=O)ccc12
2. CC(C)Oc1ccc(F)c(-c2cnc(N)c(C(=O)Nc3cnccc3N3CCC[C@@H](C(=O)O)C3)n2)c1
3. CCCCNNC(=O)c1ccc(Br)cc1
4. Cc1cc(=O)n(C)c2cc(N3C(=O)CC[C@H](NS(=O)(=O)CC(C)C)[C@H]3c3ccc(Cl)cc3)ccc12
5. CO[C@H]1CC[C@@H](C(=O)c2ccc3nc4c(cc3c2)CCCO4)CC1

1: 0.88; 2: 0.11; 3: 0.93; 4: 0.15; 5: 0.84
